System: SK-MEL-28 melanoma
Test Details: NCI-60 one-dose screen, 48 h (100 = growth as untreated, 0 = no growth, -100 = all killed)
Assay Conditions: 10 µM unless noted
The panel holds about 83,000 compounds, 20% with a hit somewhere; the sample as a whole holds those more often. Where a SMILES comes first, the peptide text is derived from it. The star is where a group is joined. Trt = c1ccc(C(c2ccccc2)(c2ccccc2)*)cc1; Cbz = O=C(OCc1ccccc1)*
The compounds listed here are annotated with their growth.
Respond with the bare value in %.

Answered cases to consult:
S=C(N/N=C/c1ccccn1)Nc1ccccn1 ... 21.5
Cc1cc(C(C)(CC(C)C)c2ccc(O)c(C)c2)ccc1O ... 114
O=C(Nc1ccccc1)c1cc(Cl)ccc1O ... 55.7
CCN(CC)CC(C)(C)C(=O)/C=C/c1ccc(Cl)c(Cl)c1 ... -35.5
CN1c2ccccc2C(C)(C)C12C=Cc1cc(O)ccc1O2 (centres undefined) ... 64.5

Read off the recorded growth for "CCCCCCCCCCCCCCCCOP(=O)([O-])OCC[N+](C)(C)C"
98.3

Read off the recorded growth for "Cc1cc(N)c2ccccc2[n+]1CCCCCCCCCC[n+]1c(C)cc(N)c2ccccc21"
-26.4

Read off the recorded growth for "O=C1N[C@H]2[C@H](CS[C@H]2CCCCC(=O)N(CCP(c2ccccc2)c2ccccc2)CCP(c2ccccc2)c2ccccc2)N1"
99.7

Read off the recorded growth for COC(=O)C(CSC(c1ccccc1)(c1ccccc1)c1ccccc1)NC(=O)C(CC(N)=O)NC(=O)OCc1ccccc1 (stereo not drawn) (Cbz-Asn-Cys(Trt)-OMe; configuration not given here)
24.4

====

Tested on: SF-539 CNS
Test Details: NCI-60 one-dose screen, 48 h (100 = growth as untreated, 0 = no growth, -100 = all killed)
Assay Conditions: 10 µM
The panel holds about 83,000 compounds, 20% with a hit somewhere; the sample as a whole holds those more often. The source made the active and inactive calls. How the source made its calls: active means growth percent below 10; inactive means the rest.
The molecules listed here are annotated with their growth.

Answered cases to consult:
O=C(Nc1c(Cl)cccc1Cl)Oc1cccc2cccnc12 ... 28.2% (inactive)
CN(C)C(=O)c1ccc(SC(=S)NCc2ccccc2)cc1 ... 102% (inactive)
O=C(Nc1cccc(Br)c1)Oc1cccc2cccnc12 ... 97.1% (inactive)

# evaluate next
Read off the recorded growth for "COc1ccc(-c2cscc2N)cc1"
78.7% (inactive)

====

System: DU-145 prostate
Test Details: NCI-60 one-dose screen, 48 h (100 = growth as untreated, 0 = no growth, -100 = all killed)
Assay Conditions: 100 µM
About 83,000 compounds went through this panel and 20% of them were active in at least one assay; those are over-represented in the sample as a whole.
The compounds listed here are annotated with their growth.
Respond with the bare value in %.

# return growth for "COc1ccc(-c2cscc2N)cc1" , test system: DU-145 prostate
69.8

# return growth for "O=C(O)c1c(Cl)c(Cl)c(Cl)c(Cl)c1-c1c2cc(I)c(=O)c(I)c-2oc2c(I)c(O)c(I)cc12" , test system: DU-145 prostate
59

# return growth for "O=C(Nc1c(Cl)cccc1Cl)Oc1cccc2cccnc12" , test system: DU-145 prostate
49.1

# return growth for "O=C(Nc1cccc(Br)c1)Oc1cccc2cccnc12" , test system: DU-145 prostate
35.6

====

Test system: COLO 205 colon
Test Details: NCI-60 one-dose screen, 48 h
Assay Conditions: 10 µM unless noted
Compounds without any hit were thinned out: in the full panel of roughly 83,000, 20% have a hit. Activity calls are given as the source filed them. Rule for the calls: active = growth percent below 10; inactive = the rest.
Allowed answers: label 1 for active, label 0 for inactive

N#Cc1ccc([N+](=O)[O-])o1 ... label 0
NC(N)=N/N=C/c1ccc([N+](=O)[O-])o1 ... label 1
Nc1nc(N)c2c(ccc3c2ccn3Cc2cccc([N+](=O)[O-])c2)n1 ... label 1

Answer briefly: the call reported for "Cc1ccc2nc(-[n+]3cc4ccccc4cc3C)ccc2c1" in this assay.
label 1

Answer briefly: the call reported for CCC(c1cccc(O)c1)C(CC)c1cccc(O)c1 (stereo unspecified) in this assay.
label 0

Answer briefly: the call reported for "CCCCCCCCCCCCCCNCc1ccccc1" in this assay.
label 1

Answer briefly: the call reported for "CC(C)(C)CC(C)(C)c1ccc(OCCSC(=N)N)cc1" in this assay.
label 1

Answer briefly: the call reported for "O=C1C=CC(=O)N1C1c2ccccc2-c2ccccc21" in this assay.
label 0

Answer briefly: the call reported for "Oc1ccc(/C=N/NC(=S)Nc2ccccc2)nc1" in this assay.
label 0

Answer briefly: the call reported for "Oc1c(Cl)c2ccccc2c2ccccc12" in this assay.
label 0

Answer briefly: the call reported for "NC1=CC(=O)c2ccccc2C1=O" in this assay.
label 0
